Taken from paper PMC8151276.

Molecular target: LTB4R (Homo sapiens, UniProt Q15722)
Construct: purchased Promega (in-house HiBiT-GPCR construct library, NanoBRET)
Sequence (Q15722 whole entry): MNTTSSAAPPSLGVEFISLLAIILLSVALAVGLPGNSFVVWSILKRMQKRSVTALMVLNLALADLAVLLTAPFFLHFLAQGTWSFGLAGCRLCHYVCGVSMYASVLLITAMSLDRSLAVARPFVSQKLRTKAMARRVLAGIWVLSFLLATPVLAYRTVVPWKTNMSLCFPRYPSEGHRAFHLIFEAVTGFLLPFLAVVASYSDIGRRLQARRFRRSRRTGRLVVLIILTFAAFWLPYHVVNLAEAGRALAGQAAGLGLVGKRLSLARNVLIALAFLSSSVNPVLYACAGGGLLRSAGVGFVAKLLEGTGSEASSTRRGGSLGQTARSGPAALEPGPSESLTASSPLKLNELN
Experiment: NanoBRET screen HiBiT-LTB4R in HEK293
Type: binding
Conditions: LTB4R; tracer 0.1μM
quantity.measured: NanoBRET Fold Response
Field format: numeric only.

In the examples that follow, each entry is paired with its recorded NanoBRET Fold Response.
N#CN=C(NCCCOc1cccc(CN2CCCCC2)c1)NCCNC(=O)CCOCCOCCOCCOCCNC(=O)CCc1ccc2n1[B-](F)(F)[N+]1=C(c3ccc[nH]3)C=CC1=C2
1.03
Cc1nc2n(c(=O)c1CCN1CCC(c3noc4cc(F)ccc34)CC1)CCCC2OC(=O)NCCOCCOCCOCCOCCNC(=O)CCc1ccc2n1[B-](F)(F)[N+]1=C(c3ccc[nH]3)C=CC1=C2 (centres unmarked)
1.03
COc1ccccc1N1CCN(CCCCN2C(=O)c3ccc(CNC(=O)CCOCCNC(=O)c4ccc(CNC(=O)CCc5ccc6n5[B-](F)(F)[N+]5=C(c7ccc[nH]7)C=CC5=C6)cc4)cc3C2=O)CC1
1.02
CCCn1c(=O)c2[nH]c(-c3ccc(OCC(=O)NCCNC(=O)CCOCCNC(=O)c4ccc(CNC(=O)CCc5ccc6n5[B-](F)(F)[N+]5=C(c7ccc[nH]7)C=CC5=C6)cc4)cc3)nc2n(CCC)c1=O
1.09

**Q:** Requested read-out: NanoBRET Fold Response. Entry: CC(C)N(CC[C@H](c1ccccc1)c1cc(CCNC(=O)CCOCCOCCOCCOCCNC(=O)CCc2ccc3n2[B-](F)(F)[N+]2=C(c4ccc[nH]4)C=CC2=C3)ccc1O)C(C)C
**A:** 0.92

* * *

Target: P2RY13 (Homo sapiens)
Construct: purchased Promega (in-house HiBiT-GPCR construct library, NanoBRET)
Sequence (Q9BPV8 whole entry, one chain of several): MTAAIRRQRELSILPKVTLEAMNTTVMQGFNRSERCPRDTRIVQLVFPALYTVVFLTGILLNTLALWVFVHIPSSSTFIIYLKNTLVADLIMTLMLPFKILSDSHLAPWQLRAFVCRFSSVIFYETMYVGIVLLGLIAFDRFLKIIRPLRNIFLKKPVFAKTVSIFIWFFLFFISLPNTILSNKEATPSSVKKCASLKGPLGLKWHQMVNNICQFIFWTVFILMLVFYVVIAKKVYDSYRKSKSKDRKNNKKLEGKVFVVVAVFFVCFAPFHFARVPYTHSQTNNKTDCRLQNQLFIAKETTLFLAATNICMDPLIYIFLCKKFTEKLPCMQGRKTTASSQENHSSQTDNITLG
Assay: NanoBRET screen HiBiT-P2RY13 in HEK293
Assay type: binding
Conditions: P2RY13; tracer 0.1μM
The following compounds are shown together with reported NanoBRET Fold Response values.

Example results:
COc1ccccc1N1CCN(CCCCN2C(=O)c3ccc(CNC(=O)CCOCCOCCOCCOCCNC(=O)CCc4ccc5n4[B-](F)(F)[N+]4=C(c6ccc[nH]6)C=CC4=C5)cc3C2=O)CC1
0.97
COc1ccccc1N1CCN(CCCCN2C(=O)c3ccc(CNC(=O)CCOCCNC(=O)c4ccc(CNC(=O)CCc5ccc6n5[B-](F)(F)[N+]5=C(c7ccc[nH]7)C=CC5=C6)cc4)cc3C2=O)CC1
1.02

Turning now to a further record.
**Q:** What value of NanoBRET Fold Response has been reported for the following compound? Cc1cc2c(s1)Nc1ccccc1N=C2N1CCN(CCCNC(=O)CCOCCOCCOCCOCCNC(=O)CCc2ccc3n2[B-](F)(F)[N+]2=C(c4ccc[nH]4)C=CC2=C3)CC1
**A:** 1.09

* * *

Biological target: PTGDR2 (Homo sapiens)
Construct: purchased Promega (in-house HiBiT-GPCR construct library, NanoBRET)
Sequence (Q9Y5Y4 1-395): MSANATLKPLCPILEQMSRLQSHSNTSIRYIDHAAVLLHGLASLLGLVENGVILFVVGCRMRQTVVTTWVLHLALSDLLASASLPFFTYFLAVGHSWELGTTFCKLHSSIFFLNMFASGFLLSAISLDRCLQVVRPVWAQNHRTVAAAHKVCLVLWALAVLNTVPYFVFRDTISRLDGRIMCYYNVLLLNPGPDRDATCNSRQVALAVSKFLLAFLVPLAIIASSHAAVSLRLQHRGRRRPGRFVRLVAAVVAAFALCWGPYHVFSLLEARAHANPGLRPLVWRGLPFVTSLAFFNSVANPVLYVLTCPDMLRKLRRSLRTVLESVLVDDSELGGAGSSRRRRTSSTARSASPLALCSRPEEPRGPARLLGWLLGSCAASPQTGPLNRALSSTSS
Experiment: NanoBRET screen HiBiT-PTGDR2 in HEK293
Format: binding
Conditions: PTGDR2; tracer 1μM
quantity.measured: NanoBRET Fold Response
Kindly provide the number alone.

Would you please look over these solved cases?
Cc1nc2n(c(=O)c1CCN1CCC(c3noc4cc(F)ccc34)CC1)CCCC2OC(=O)NCCOCCOCCOCCOCCNC(=O)CCc1ccc2n1[B-](F)(F)[N+]1=C(c3ccc[nH]3)C=CC1=C2 (centres unmarked) [Risperidone-2-NB590]
0.96
O=C(CCc1ccc2n1[B-](F)(F)[N+]1=C(c3ccc[nH]3)C=CC1=C2)NCCOCCOCCNC(=O)OCCOCCN1CCN(C2=Nc3ccccc3Sc3ccccc32)CC1 [Quetiapine-a-2-NB590]
1.05
O=C(CCc1ccc2n1[B-](F)(F)[N+]1=C(c3ccc[nH]3)C=CC1=C2)NCc1ccc(C(=O)NCCOCCC(=O)N[C@@H]2CC[C@@]3(O)[C@H]4Cc5ccc(O)c6c5[C@@]3(CCN4CC3CC3)[C@H]2O6)cc1 [Naltrexone-3-NB590]
1.00
COc1ccccc1N1CCN(CCCCN2C(=O)c3ccc(CNC(=O)CCOCCNC(=O)c4ccc(CNC(=O)CCc5ccc6n5[B-](F)(F)[N+]5=C(c7ccc[nH]7)C=CC5=C6)cc4)cc3C2=O)CC1 [NAN-190-3-NB590]
0.85
CC(C)N(CC[C@H](c1ccccc1)c1cc(CCNC(=O)c2ccc(CNC(=O)CCc3ccc4n3[B-](F)(F)[N+]3=C(c5ccc[nH]5)C=CC3=C4)cc2)ccc1O)C(C)C [Tolterodine-BZ-NB590]
0.96

**Q:** Given N#CN=C(NCCCOc1cccc(CN2CCCCC2)c1)NCCNC(=O)CCOCCOCCOCCOCCNC(=O)CCc1ccc2n1[B-](F)(F)[N+]1=C(c3ccc[nH]3)C=CC1=C2 [Aminopotentidine-2-NB590] , state its recorded NanoBRET Fold Response.
**A:** 0.48

**Q:** # iterate: COc1ccccc1N1CCN(CCCCN2C(=O)c3ccc(CNC(=O)CCOCCOCCOCCOCCNC(=O)CCc4ccc5n4[B-](F)(F)[N+]4=C(c6ccc[nH]6)C=CC4=C5)cc3C2=O)CC1 [NAN-190-2-NB590]
**A:** 1.02

* * *

Target: MC2R (Homo sapiens, UniProt Q01718)
Construct: purchased Promega (in-house HiBiT-GPCR construct library, NanoBRET)
Sequence (Q01718 whole entry): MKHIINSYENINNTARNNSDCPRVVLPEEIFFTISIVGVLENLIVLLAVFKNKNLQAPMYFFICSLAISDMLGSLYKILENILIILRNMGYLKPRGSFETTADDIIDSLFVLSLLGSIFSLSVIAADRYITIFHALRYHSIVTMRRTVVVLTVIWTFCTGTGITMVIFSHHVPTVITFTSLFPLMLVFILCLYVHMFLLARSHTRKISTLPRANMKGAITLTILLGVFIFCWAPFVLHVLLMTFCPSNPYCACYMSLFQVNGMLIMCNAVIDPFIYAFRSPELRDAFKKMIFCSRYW
Test: NanoBRET screen HiBiT-MC2R in HEK293
Format: binding
Conditions: MC2R; tracer 1μM
quantity.measured: NanoBRET Fold Response

Here is how some molecules turned out for NanoBRET Fold Response.
CC(C)N(CC[C@H](c1ccccc1)c1cc(CCNC(=O)CCOCCOCCOCCOCCNC(=O)CCc2ccc3n2[B-](F)(F)[N+]2=C(c4ccc[nH]4)C=CC2=C3)ccc1O)C(C)C [Tolterodine-2-NB590]
1.10
O=C(CCOCCOCCOCCOCCNC(=O)CCc1ccc2n1[B-](F)(F)[N+]1=C(c3ccc[nH]3)C=CC1=C2)NCCCN1CCN(C2=Nc3ccccc3Oc3ccc(Cl)cc32)CC1 [Loxapine-a-2-NB590]
1.11
Cc1cc2c(s1)Nc1ccccc1N=C2N1CCN(CCCNC(=O)CCOCCOCCOCCOCCNC(=O)CCc2ccc3n2[B-](F)(F)[N+]2=C(c4ccc[nH]4)C=CC2=C3)CC1 [Olanzapine-a-2-NB590]
1.21
COc1ccccc1N1CCN(CCCCN2C(=O)c3ccc(CNC(=O)CCOCCNC(=O)c4ccc(CNC(=O)CCc5ccc6n5[B-](F)(F)[N+]5=C(c7ccc[nH]7)C=CC5=C6)cc4)cc3C2=O)CC1 [NAN-190-3-NB590]
0.96

Please find the next molecule below.
**Q:** // returns reported NanoBRET Fold Response for input N#CN=C(NCCCOc1cccc(CN2CCCCC2)c1)NCCNC(=O)CCOCCOCCOCCOCCNC(=O)CCc1ccc2n1[B-](F)(F)[N+]1=C(c3ccc[nH]3)C=CC1=C2 [Aminopotentidine-2-NB590]
**A:** 0.92

* * *

Target: PTGER3 (Homo sapiens)
Construct: purchased Promega (in-house HiBiT-GPCR construct library, NanoBRET)
Sequence (P43115 whole entry): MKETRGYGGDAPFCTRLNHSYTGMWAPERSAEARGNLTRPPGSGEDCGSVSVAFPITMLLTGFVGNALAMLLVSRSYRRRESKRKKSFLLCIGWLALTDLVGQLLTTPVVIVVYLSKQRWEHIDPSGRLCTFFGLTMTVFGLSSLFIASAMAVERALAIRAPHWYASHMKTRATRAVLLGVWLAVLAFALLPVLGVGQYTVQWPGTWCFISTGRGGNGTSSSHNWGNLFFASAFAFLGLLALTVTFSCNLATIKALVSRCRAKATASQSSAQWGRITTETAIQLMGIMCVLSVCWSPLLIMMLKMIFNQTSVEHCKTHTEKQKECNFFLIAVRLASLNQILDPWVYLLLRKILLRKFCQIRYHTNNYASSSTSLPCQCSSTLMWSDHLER
Assay: NanoBRET screen HiBiT-PTGER3 in HEK293
Type: binding
Details: PTGER3; tracer 0.1μM
Quick reference: NanoBRET Fold Response of the listed items.
Could you keep your reply to the number by itself?

O=C(CCOCCOCCOCCOCCNC(=O)CCc1ccc2n1[B-](F)(F)[N+]1=C(c3ccc[nH]3)C=CC1=C2)NCCCN1CCN(C2=Nc3ccccc3Oc3ccc(Cl)cc32)CC1
0.98
CCCn1c(=O)c2[nH]c(-c3ccc(OCC(=O)NCCNC(=O)CCOCCNC(=O)c4ccc(CNC(=O)CCc5ccc6n5[B-](F)(F)[N+]5=C(c7ccc[nH]7)C=CC5=C6)cc4)cc3)nc2n(CCC)c1=O
0.97
CC(C)N(CC[C@H](c1ccccc1)c1cc(CCNC(=O)c2ccc(CNC(=O)CCc3ccc4n3[B-](F)(F)[N+]3=C(c5ccc[nH]5)C=CC3=C4)cc2)ccc1O)C(C)C
0.99
Cc1nc2n(c(=O)c1CCN1CCC(c3noc4cc(F)ccc34)CC1)CCCC2OC(=O)NCCOCCOCCOCCOCCNC(=O)CCc1ccc2n1[B-](F)(F)[N+]1=C(c3ccc[nH]3)C=CC1=C2 (centres unmarked)
0.94
O=C(CCc1ccc2n1[B-](F)(F)[N+]1=C(c3ccc[nH]3)C=CC1=C2)NCCOCCOCCNC(=O)OCCOCCN1CCN(C2=Nc3ccccc3Sc3ccccc32)CC1
0.97

**Q:** Name the recorded NanoBRET Fold Response for Cc1cc2c(s1)Nc1ccccc1N=C2N1CCN(CCCNC(=O)CCOCCOCCOCCOCCNC(=O)CCc2ccc3n2[B-](F)(F)[N+]2=C(c4ccc[nH]4)C=CC2=C3)CC1 .
**A:** 1.00

**Q:** For N#CN=C(NCCCOc1cccc(CN2CCCCC2)c1)NCCNC(=O)CCOCCOCCOCCOCCNC(=O)CCc1ccc2n1[B-](F)(F)[N+]1=C(c3ccc[nH]3)C=CC1=C2 then?
**A:** 1.01

**Q:** Moving on to the next molecule: O=C(CCc1ccc2n1[B-](F)(F)[N+]1=C(c3ccc[nH]3)C=CC1=C2)NCc1ccc(C(=O)NCCOCCC(=O)N[C@@H]2CC[C@@]3(O)[C@H]4Cc5ccc(O)c6c5[C@@]3(CCN4CC3CC3)[C@H]2O6)cc1 [Naltrexone-3-NB590]
**A:** 0.94

**Q:** Continue with CC(C)N(CC[C@H](c1ccccc1)c1cc(CCNC(=O)CCOCCOCCOCCOCCNC(=O)CCc2ccc3n2[B-](F)(F)[N+]2=C(c4ccc[nH]4)C=CC2=C3)ccc1O)C(C)C
**A:** 1.14

**Q:** Further, for COc1ccccc1N1CCN(CCCCN2C(=O)c3ccc(CNC(=O)CCOCCNC(=O)c4ccc(CNC(=O)CCc5ccc6n5[B-](F)(F)[N+]5=C(c7ccc[nH]7)C=CC5=C6)cc4)cc3C2=O)CC1 ?
**A:** 0.99

**Q:** Query COc1ccccc1N1CCN(CCCCN2C(=O)c3ccc(CNC(=O)CCOCCOCCOCCOCCNC(=O)CCc4ccc5n4[B-](F)(F)[N+]4=C(c6ccc[nH]6)C=CC4=C5)cc3C2=O)CC1 next
**A:** 1.00
